So I've got a bunch of molecules here, and I need their efflux ratio at 2.5 h, 2 μM values.
- Protocol Text: Cellular permeability in MDCK assay
- Assay type: in vitro ADME
- Assay Setup: dog, pH 7.4; MDCK II, Papp(BA)/Papp(AB), with P-gp inhibitor GF120918 10 μM
- Procedure: Cell culture: MDCK II cells (obtained from Piet Borst at the Netherlands Cancer Institute) were seeded onto […] (PET) in 96-well BD insert systems at 2.5×10^5 cells/mL until to 4-7 days for confluent cell monolayer formation. […] Percent of lucifer yellow in basolateral well is calculated using the equation: […]
// no unit string in output, number only

Recorded efflux ratio at 2.5 h, 2 μM of CSc1cc(Cl)[nH]c(=O)c1CNC(=O)c1cc(Cl)c2c(c1C)O[C@@](C)([C@H]1CC[C@H](N(C)C)CC1)O2 [Example 3] , please. 1.2

Fill in: efflux ratio at 2.5 h, 2 μM of CSc1cc(C)[nH]c(=O)c1CNC(=O)c1cc(Cl)c2c(c1C)OC(C)(C1CCC(N3CC(F)C3)CC1)O2 (single isomer, unassigned) [Example 12] is ___ 1.2

Consider the molecule Cc1cc(Cl)c(CNC(=O)c2cc(Cl)c3c(c2C)OC(C)(C2CCC(N4CC(OC(F)F)C4)CC2)O3)c(=O)[nH]1 (single isomer, unassigned) [Example 13] and give its measured efflux ratio at 2.5 h, 2 μM. 0.64

What does the data say about its efflux ratio at 2.5 h, 2 μM? Entry: CSc1nc(C)[nH]c(=O)c1CNC(=O)c1cc(Cl)c2c(c1C)OC(C)(C1CCC(N3CC(OC(F)F)C3)CC1)O2 (single isomer, unassigned) [Example 10] 0.69

For CSc1cc(C)[nH]c(=O)c1CNC(=O)c1cc(Cl)c2c(c1C)OC(C)(C1CCC(N3CC(OC(F)F)C3)CC1)O2 (single isomer, unassigned) [Example 1] , what is its reported efflux ratio at 2.5 h, 2 μM? 0.79

Fill blank: measured efflux ratio at 2.5 h, 2 μM of the molecule COC1CN(C2CCC(C3(C)Oc4c(Cl)cc(C(=O)NCc5c(SC)cc(C)[nH]c5=O)c(C)c4O3)CC2)C1 (single isomer, unassigned) [Example 17] is ____. 1.8

Item under review: CSc1cc(C)[nH]c(=O)c1CNC(=O)c1cc(Cl)c2c(c1C)OC(C)(C1CCC(N3CC(F)(F)C3)CC1)O2 (single isomer, unassigned) [Example 7-Enantiomer 2] . Reported efflux ratio at 2.5 h, 2 μM? 0.71

GET /values?readout=efflux ratio at 2.5 h, 2 μM&item= CSc1nc(C)[nH]c(=O)c1CNC(=O)c1cc(Cl)c2c(c1C)O[C@@](C)([C@H]1CC[C@H](N(C)C)CC1)O2 [Example 5] 3.6

Record request: efflux ratio at 2.5 h, 2 μM value, item CSc1cc(C)[nH]c(=O)c1CNC(=O)c1cc(Cl)c2c(c1C)OC(C)(C1CCC(N3CC(OC4CC4)C3)CC1)O2 (single isomer, unassigned) [Example 9] 1.4

Reported efflux ratio at 2.5 h, 2 μM, molecule CSc1cc(C)[nH]c(=O)c1CNC(=O)c1cc(Cl)c2c(c1C)OC(C)(C1CCN(CC(F)(F)F)CC1)O2 (single isomer, unassigned) [Example 14-Enantiomer 2] : ____ 0.56

What value of measured efflux ratio at 2.5 h, 2 μM is listed for CSc1cc(C)[nH]c(=O)c1CNC(=O)c1cc(Cl)c2c(c1C)O[C@@](C)([C@H]1CC[C@H](N(C)C)CC1)O2 [Example 4] ? 2.3

Record request: efflux ratio at 2.5 h, 2 μM value, item Cc1cc(Cl)c(CNC(=O)c2cc(Cl)c3c(c2C)OC(C)(C2CCC(N4CC(OC5CC5)C4)CC2)O3)c(=O)[nH]1 (single isomer, unassigned) [Example 8] 0.9

Look at this molecule and give its reported efflux ratio at 2.5 h, 2 μM. CSc1cc(C)[nH]c(=O)c1CNC(=O)c1cc(Cl)c2c(c1C)OC(C)(C1CCC(NC3(CF)COC3)CC1)O2 (single isomer, unassigned) [Example 11 (geometric isomer 1)] 1.3
